# tested-on: Glycogen phosphorylase, muscle form (Oryctolagus cuniculus)
endpoint: pIC50
Note on units: pIC50 is unitless, being -log10 of a concentration expressed in mol/L.

For orientation, consider the following solved cases.
INSERT INTO measurements (compound, endpoint, numeric_value) VALUES
  ('CC(=O)O[C@H]1CC[C@]2(C)[C@H]3CC=C4[C@@H]5[C@@H](C)[C@H](C)CC[C@]5(C(=O)O)CC[C@@]4(C)[C@]3(C)CC[C@H]2C1(C)C [O-ACETYLURSOLIC ACID]', 'pIC50', 3.88),
  ('CC1(C)CC[C@]2(C(=O)OCc3ccccc3)CC[C@]3(C)C(=CC[C@@H]4[C@@]5(C)Cc6cn(CC(=O)O)nc6C(C)(C)[C@@H]5CC[C@]43C)[C@@H]2C1', 'pIC50', 4.33),
  ('C[C@H]1[C@H](C)CC[C@]2(C(=O)OCc3ccccc3)CC[C@]3(C)C(=CC[C@@H]4[C@@]5(C)C[C@H](O)CC(C)(C)[C@@H]5CC[C@]43C)[C@H]12', 'pIC50', 4.65);

Request: Quick check: pIC50 on Glycogen phosphorylase, muscle form (Oryctolagus cuniculus), item `CC(=O)OCCCCCCOC(=O)[C@H](O)CC(=O)OCCCCCCOC(=O)[C@]12CCC(C)(C)C[C@H]1C1=CC[C@@H]3[C@@]4(C)CC[C@H](O)C(C)(C)[C@@H]4CC[C@@]3(C)[C@]1(C)CC2` ?
Result: 4.91

Request: Request body: readout pIC50, system Glycogen phosphorylase, muscle form (Oryctolagus cuniculus), query `CC1(C)CC[C@]2(C(=O)O)CC[C@]3(C)C(=CC[C@@H]4[C@@]5(C)Cc6cn[nH]c6C(C)(C)[C@@H]5CC[C@]43C)[C@@H]2C1` . Return the value.
Result: 5.11

Request: Reported pIC50 for Glycogen phosphorylase, muscle form (Oryctolagus cuniculus), given CC1(C)CC[C@]2(C(=O)OCc3ccccc3)CC[C@]3(C)C(=CC[C@@H]4[C@@]5(C)CC6C=NOC6C(C)(C)[C@@H]5CC[C@]43C)[C@@H]2C1 (stereo partly specified) ?
Result: 4.71

Request: Param readout = pIC50; param system = Glycogen phosphorylase, muscle form (Oryctolagus cuniculus); param query = `CC(=O)O[C@@H]1C[C@]2(C)[C@H]3CC=C4[C@@H]5[C@@H](C)[C@H](C)CC[C@]5(C(=O)O)CC[C@@]4(C)[C@]3(C)CC[C@H]2C(C)(C)[C@H]1OC(C)=O` ; response: value
Result: 4.46

====

# tested-on: Glycogen phosphorylase, muscle form (Oryctolagus cuniculus)
# Sequence (P00489 whole entry): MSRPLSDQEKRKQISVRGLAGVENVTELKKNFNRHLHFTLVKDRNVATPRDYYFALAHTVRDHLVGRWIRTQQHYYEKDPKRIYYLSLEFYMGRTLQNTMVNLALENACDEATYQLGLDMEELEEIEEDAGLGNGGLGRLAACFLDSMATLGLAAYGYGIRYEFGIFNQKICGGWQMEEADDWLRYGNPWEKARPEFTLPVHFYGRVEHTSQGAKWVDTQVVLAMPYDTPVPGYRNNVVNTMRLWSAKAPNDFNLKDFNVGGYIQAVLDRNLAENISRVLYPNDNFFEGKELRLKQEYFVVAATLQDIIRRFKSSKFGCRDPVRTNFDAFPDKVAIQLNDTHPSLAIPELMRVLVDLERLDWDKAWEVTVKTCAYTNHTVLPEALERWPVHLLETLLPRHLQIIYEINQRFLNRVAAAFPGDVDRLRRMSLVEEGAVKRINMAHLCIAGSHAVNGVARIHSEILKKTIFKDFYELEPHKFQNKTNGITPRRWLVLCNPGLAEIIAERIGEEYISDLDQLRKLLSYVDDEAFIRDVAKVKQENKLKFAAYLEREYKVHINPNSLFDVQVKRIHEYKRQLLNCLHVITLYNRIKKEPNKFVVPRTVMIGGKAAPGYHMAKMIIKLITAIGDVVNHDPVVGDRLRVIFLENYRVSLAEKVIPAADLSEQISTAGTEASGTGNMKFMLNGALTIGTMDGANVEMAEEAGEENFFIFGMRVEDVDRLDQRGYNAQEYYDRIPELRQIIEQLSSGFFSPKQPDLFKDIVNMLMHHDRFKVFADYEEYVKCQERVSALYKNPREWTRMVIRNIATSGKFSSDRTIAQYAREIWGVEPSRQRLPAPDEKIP
Documented IC50 across a set of molecules

Would you please look over these solved cases?
INSERT INTO measurements (structure_as_smiles, result) VALUES
  ('COCc1cn(CCCCCCn2cc(CO[C@H]3CC[C@]4(C)[C@H]5CC=C6[C@@H]7CC(C)(C)CC[C@]7(C(=O)O)CC[C@@]6(C)[C@]5(C)CC[C@H]4C3(C)C)nn2)nn1', '2.59 µM'),
  ('CC1(C)CC[C@]2(C(=O)OCc3ccccc3)CC[C@]3(C)C(=CC[C@@H]4[C@@]5(C)C/C(=N\O)C(=O)C(C)(C)[C@@H]5CC[C@]43C)[C@@H]2C1', '46.8 µM'),
  ('C[C@H]1[C@H](C)CC[C@]2(C(=O)OCc3ccccc3)CC[C@]3(C)C(=CC[C@@H]4[C@@]5(C)C[C@H](O)[C@@H](O)C(C)(C)[C@@H]5CC[C@]43C)[C@H]12', '1.25 µM');

Let us examine a further case.
Request: Give the measured IC50 of `CCC(=O)n1cc2c(n1)C(C)(C)[C@@H]1CC[C@]3(C)[C@H](CC=C4[C@@H]5CC(C)(C)CC[C@]5(C(=O)O)CC[C@]43C)[C@@]1(C)C2` .
Result: 37.2 µM
